molecular target: Myeloid Cell Leukemia 1 (Mcl-1) (Homo sapiens, UniProt Q07820); construct: Terbium (Tb) label; means of attachment not described; experiment: biochemical; assay type: binding; details: TB-MCL1 Ki (nM)
Sequence (Q07820 whole entry): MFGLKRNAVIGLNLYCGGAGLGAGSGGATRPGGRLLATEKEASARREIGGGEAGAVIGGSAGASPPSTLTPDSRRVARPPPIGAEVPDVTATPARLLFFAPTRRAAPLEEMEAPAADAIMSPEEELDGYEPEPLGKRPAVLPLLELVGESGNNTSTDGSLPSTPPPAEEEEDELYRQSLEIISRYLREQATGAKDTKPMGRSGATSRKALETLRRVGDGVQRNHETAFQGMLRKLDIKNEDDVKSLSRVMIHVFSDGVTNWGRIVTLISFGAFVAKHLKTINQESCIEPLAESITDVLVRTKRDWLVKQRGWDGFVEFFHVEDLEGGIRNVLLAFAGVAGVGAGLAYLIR
Record form. Attribute: Ki. Fill in for each entry.
Record the result as number plus unit.

Query Cc1nn(CCCN)c2c1-c1c(Cl)ccc3c1c(C)c(C(=O)O)n3CCCOc1cc(cc3cc(F)ccc13)CCc1cc(nn1C)CSC2 [Compound 38] yields Ki of 0.019 nM

Query CNCCn1nc(C)c2c1CSCc1cc(n(C)n1)CCc1cc(c3ccc(F)cc3c1)OCCCn1c(C(=O)O)c(C)c3c-2c(Cl)ccc31 (single isomer, unassigned) [Compound 69] yields Ki of 0.014 nM

Query Cc1nn(CCC2CCOCC2)c2c1-c1c(Cl)ccc3c1c(C)c(C(=O)O)n3CCCOc1cc(cc3cc(F)ccc13)CCc1cc(nn1C)CSC2 [Compound 22] yields Ki of 0.029 nM
